Target: T1, human CD47-his (Sino Biological, CAT#12283-HCCH-50) (human, UniProt Q08722 19-139, limits assumed)
T1 construct: Bought protein used as analyte in Biacore; also called 人CD47-his; human CD47-his antigen; not shown: His tag of the bought protein
T1 sequence (Q08722 19-139 limits assumed): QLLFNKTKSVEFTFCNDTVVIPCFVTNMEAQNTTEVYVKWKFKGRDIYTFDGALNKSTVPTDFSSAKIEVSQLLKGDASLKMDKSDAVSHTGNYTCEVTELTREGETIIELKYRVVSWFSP
Assay: SPR (Biacore): antibody captured with human Fab capture kit on CM5 chip, human CD47-his flowed over
parameter: kon (M⁻¹ s⁻¹)
Please state the figure in M⁻¹ s⁻¹; there is no need to write the unit.

chimeric antibody ch-167 (antibody, V domains shown) VH: QVQLQQPGAELVRPGSSVKLSCKASGYTFTSYWMHWVKQRPIQGLEWVGNIDPSDSETHYNQKFKDKATLTVDKSSSTAYMQLSSLTSEDSAVYYCARWGYLGRSAMDYWGQGTSVTVSS VL: DVQITQSPSYLAASPGETITINCRTSKSISKFLAWYQEKPGKTHKLLIYSGSTLQSGIPSRFSGSGSGTDFTLTISSLEPEDFAMYYCQQHNEYPWTFGGGTKLEIK
1.72e+06

Query :: Return kon (reported value) for this binder: hu055-5 (antibody, V domains shown) VH: QVQLVQSGAEVKKPGASVKVSCKASGYTFTSSYLHWVRQAPGQRLDWIGWIYPESGNTKYNERFKGRATLTADTSASTAYMELSSLRSEDTAVYYCARRGDVFFAYWGQGTTVTVSS VL: DIVMTQSPDSLAVSLGERATINCKSSQSLLTSGKQKNYLTWYQQKPGQPPKLLIYWASTRESGVPDRFSGSGSGTDFTLTISSLQAEDVAVYYCQNDYSYPLTFGQGTKLEIKR
Result :: 2.1e+06
